Target: HLA-A*24 (human)
Assay: UV-exchange ELISA, exchange yield grade
reported_endpoint: peptide exchange yield

Q: Record request: peptide exchange yield value, item NYLDVATFL [… (SEQ ID NO: 206)]
Ans: > 75%

Q: Record request: peptide exchange yield value, item VFSRDFGLLVF [… (SEQ ID NO: 125)]
Ans: 50 to 75%

Q: Record request: peptide exchange yield value, item SYLTWHQQI [… (SEQ ID NO: 104)]
Ans: > 75%

Q: Record request: peptide exchange yield value, item FYTLPFHLI [… (SEQ ID NO: 166)]
Ans: > 75%

Q: Record request: peptide exchange yield value, item GYIEHFSLW [… (SEQ ID NO: 120)]
Ans: > 75%

Q: Record request: peptide exchange yield value, item VFPRLHNVLF [… (SEQ ID NO: 98)]
Ans: 50 to 75%

Q: Record request: peptide exchange yield value, item DYIPASGFALF [… (SEQ ID NO: 157)]
Ans: 50 to 75%

Q: Record request: peptide exchange yield value, item RYFDVGLHNF [… (SEQ ID NO: 384)]
Ans: 50 to 75%

Q: Record request: peptide exchange yield value, item YYLGSGRETF [… (SEQ ID NO: 291)]
Ans: 50 to 75%
